target-under-test: Alpha-glucosidase (Saccharomyces cerevisiae S288c, UniProt P53341+P38158+P07265)
assay-procedure: Inhibition of Saccharomyces cerevisiae alpha-glucosidase using p-nitrophenyl-alpha-D-glucopyranoside as substrate pre-incubated for 10 mins followed by substrate addition and measured after 15 mins by absorbance based analysis
Format: protein assay
Threshold 30 µM. IC50 below it: condition met. IC50 at it or above: condition not met.

In [3]: df
Out[3]:
                                   compound                         target_under_test              group
0  COc1cc(/C=C2/C(=O)N(c3ccccc3)C(C(=O)NC3CCCCC3)c3ccccc32)ccc1O (centres undefined)  Alpha-glucosidase (Saccharomyces cerevisiae S288c, UniProt P53341+P38158+P07265)  condition not met
1  COc1cc(/C=C2/C(=O)N(c3ccc(C(C)C)cc3)C(C(=O)NC(C)(C)C)c3ccccc32)cc(OC)c1O (centres undefined)  Alpha-glucosidase (Saccharomyces cerevisiae S288c, UniProt P53341+P38158+P07265)  condition not met
2  COc1cc(/C=C2/C(=O)N(c3ccc(C(C)C)cc3)C(C(=O)NC3CCCCC3)c3ccccc32)ccc1O (centres undefined)  Alpha-glucosidase (Saccharomyces cerevisiae S288c, UniProt P53341+P38158+P07265)      condition met
3  COc1cc(/C=C2/C(=O)N(Cc3ccccc3)C(C(=O)NC3CCCCC3)c3ccccc32)ccc1O (centres undefined)  Alpha-glucosidase (Saccharomyces cerevisiae S288c, UniProt P53341+P38158+P07265)  condition not met

## Task Decide: IC50 of COc1cc(/C=C2/C(=O)N(c3ccc(C(C)C)cc3)C(C(=O)NC3CCCCC3)c3ccccc32)cc(OC)c1O (centres undefined) strictly below 30 µM?
## Result condition not met

## Task Decide: IC50 of COc1cc(/C=C2/C(=O)N(c3ccc(F)cc3)C(C(=O)NC3CCCCC3)c3ccccc32)ccc1O (centres undefined) strictly below 30 µM?
## Result condition not met

## Task Decide: IC50 of COc1cc(/C=C2/C(=O)N(c3ccc(O)cc3)C(C(=O)NC3CCCCC3)c3ccccc32)cc(OC)c1O (centres undefined) strictly below 30 µM?
## Result condition not met

## Task Decide: IC50 of COc1cc(/C=C2/C(=O)N(c3ccc(C)cc3)C(C(=O)NC3CCCCC3)c3ccccc32)cc(OC)c1O (centres undefined) strictly below 30 µM?
## Result condition not met

## Task Decide: IC50 of COc1cc(/C=C2/C(=O)N(c3ccc(C(F)(F)F)cc3)C(C(=O)NC3CCCCC3)c3ccccc32)cc(OC)c1O (centres undefined) strictly below 30 µM?
## Result condition not met

## Task Decide: IC50 of COc1cc(/C=C2/C(=O)N(c3ccccc3)C(C(=O)NC3CCCCC3)c3ccccc32)cc(OC)c1O (centres undefined) strictly below 30 µM?
## Result condition not met

## Task Decide: IC50 of COc1cc(/C=C2/C(=O)N(c3ccc(O)cc3)C(C(=O)NC3CCCCC3)c3ccccc32)ccc1O (centres undefined) strictly below 30 µM?
## Result condition not met

## Task Decide: IC50 of CC(C)c1ccc(N2C(=O)/C(=C/c3ccccc3)c3ccccc3C2C(=O)NC(C)(C)C)cc1 (centres undefined) strictly below 30 µM?
## Result condition not met

## Task Decide: IC50 of COc1cc(/C=C2/C(=O)N(c3ccc(C(F)(F)F)cc3)C(C(=O)NC3CCCCC3)c3ccccc32)ccc1O (centres undefined) strictly below 30 µM?
## Result condition met

###

target-under-test: Alpha-glucosidase (Saccharomyces cerevisiae S288c, UniProt P53341+P38158+P07265)
assay-procedure: Inhibition of Saccharomyces cerevisiae alpha-glucosidase using p-nitrophenyl-alpha-D-glucopyranoside as substrate pre-incubated for 10 mins followed by substrate addition and measured after 15 mins by absorbance based analysis
Format: protein assay
Exercise: for every item that follows, state its recorded IC50.
Answers are plain numbers, in µM.

>>> df
                                   compound                         target_under_test  obs_value
0  COc1cc(/C=C2/C(=O)N(Cc3ccccc3)C(C(=O)NC3CCCCC3)c3ccccc32)cc(OC)c1O (centres undefined)  Alpha-glucosidase (Saccharomyces cerevisiae S288c, UniProt P53341+P38158+P07265)       61.3
1  COc1ccc2c(c1)/C(=C\c1ccc(O)c(OC)c1)C(=O)N(c1ccc(C(C)C)cc1)C2C(=O)NC(C)(C)C (centres undefined)  Alpha-glucosidase (Saccharomyces cerevisiae S288c, UniProt P53341+P38158+P07265)       31.5
2  COc1cc(/C=C2/C(=O)N(c3ccc(C(C)C)cc3)C(C(=O)NC(C)(C)C)c3ccccc32)ccc1O (centres undefined)  Alpha-glucosidase (Saccharomyces cerevisiae S288c, UniProt P53341+P38158+P07265)         68

--- query ---
## Task // IC50 lookup, key: COc1cc(/C=C2/C(=O)N(c3ccc(F)cc3)C(C(=O)NC3CCCCC3)c3ccccc32)cc(OC)c1O (centres undefined)
## Result 57.2

###

assay-procedure: Antioxidant activity assessed as DPPH radical scavenging activity at 100 uM incubated for 30 mins in dark by absorbance based analysis relative to control
Type: functional
# if value of Activity reaches 70%, tag Criterion met; if it stays below, tag Criterion not met

Worked cases, answers included:
>>> df
                                   compound              group
0  COc1cc(/C=C2/C(=O)N(c3ccc(C)cc3)C(C(=O)NC3CCCCC3)c3ccccc32)cc(OC)c1O (stereo unspecified)  Criterion not met
1  COc1cc(/C=C2/C(=O)N(c3ccc(C(F)(F)F)cc3)C(C(=O)NC3CCCCC3)c3ccccc32)ccc1O (stereo unspecified)  Criterion not met
2  COc1cc(/C=C2/C(=O)N(Cc3ccccc3)C(C(=O)NC3CCCCC3)c3ccccc32)cc(OC)c1O (stereo unspecified)  Criterion not met
3  COc1cc(/C=C2/C(=O)N(Cc3ccccc3)C(C(=O)NC3CCCCC3)c3ccccc32)ccc1O (stereo unspecified)      Criterion met

## Task I'd appreciate it if you could say whether COc1cc(/C=C2/C(=O)N(c3ccc(C(C)C)cc3)C(C(=O)NC(C)(C)C)c3ccccc32)cc(OC)c1O (stereo unspecified) has Activity at least equal to 70%.
## Result Criterion not met

## Task I'd appreciate it if you could say whether O=c1c(O)c(-c2ccc(O)c(O)c2)oc2cc(O)cc(O)c12 has Activity at least equal to 70%.
## Result Criterion met

## Task I'd appreciate it if you could say whether COc1cc(/C=C2/C(=O)N(c3ccc(F)cc3)C(C(=O)NC3CCCCC3)c3ccccc32)cc(OC)c1O (stereo unspecified) has Activity at least equal to 70%.
## Result Criterion not met

## Task I'd appreciate it if you could say whether COc1cc(/C=C2/C(=O)N(c3ccc(O)cc3)C(C(=O)NC3CCCCC3)c3ccccc32)ccc1O (stereo unspecified) has Activity at least equal to 70%.
## Result Criterion met

## Task I'd appreciate it if you could say whether COc1cc(/C=C2/C(=O)N(c3ccc(C(C)C)cc3)C(C(=O)NC3CCCCC3)c3ccccc32)cc(OC)c1O (stereo unspecified) has Activity at least equal to 70%.
## Result Criterion not met

## Task I'd appreciate it if you could say whether COc1cc(/C=C2/C(=O)N(c3ccc(C(F)(F)F)cc3)C(C(=O)NC3CCCCC3)c3ccccc32)cc(OC)c1O (stereo unspecified) has Activity at least equal to 70%.
## Result Criterion met

## Task I'd appreciate it if you could say whether COc1cc(/C=C2/C(=O)N(c3ccc(O)cc3)C(C(=O)NC3CCCCC3)c3ccccc32)cc(OC)c1O (stereo unspecified) has Activity at least equal to 70%.
## Result Criterion not met
